What hS1P1 cAMP pEC50 was measured for each of the following?
target_under_test: human sphingosine-1-phosphate receptor 1 (S1P1) (Homo sapiens (Human))
assay_notes: Inhibition of cAMP production (HTRF cAMP HiRange), S1P1 CHO-K1 cells
Type: cell-based
assay_context: inhibition of cAMP production, S1P1 CHO-K1 cells
Sequence (P21453 whole entry, looked up): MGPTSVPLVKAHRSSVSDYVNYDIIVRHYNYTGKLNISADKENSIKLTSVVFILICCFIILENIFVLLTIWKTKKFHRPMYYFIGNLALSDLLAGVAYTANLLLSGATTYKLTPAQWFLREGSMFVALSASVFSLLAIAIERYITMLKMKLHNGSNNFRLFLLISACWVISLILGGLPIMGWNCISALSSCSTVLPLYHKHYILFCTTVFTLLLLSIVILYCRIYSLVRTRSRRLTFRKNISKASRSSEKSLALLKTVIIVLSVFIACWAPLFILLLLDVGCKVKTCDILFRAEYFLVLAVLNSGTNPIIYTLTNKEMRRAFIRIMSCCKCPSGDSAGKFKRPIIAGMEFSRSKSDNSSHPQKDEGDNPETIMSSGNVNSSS

# compound COCC1(COC)CC(=O)c2cc(-c3nc(-c4ccncc4)no3)ccc2O1 ; its hS1P1 cAMP pEC50 = <6.5

# compound O=C1c2cc(-c3nc(-c4ccncc4)no3)ccc2OC(CO)(CO)C1Br (centres unmarked) ; its hS1P1 cAMP pEC50 = <6.5

# compound COc1cccc(-c2nc(-c3ccc4c(ccn4C(C)C)c3)no2)c1 ; its hS1P1 cAMP pEC50 = <6.5

# compound N#Cc1cc(-c2nc(-c3ccc4c(c3)CC(=O)N4)no2)ccc1NCC1CC1 ; its hS1P1 cAMP pEC50 = >6.5

# compound CSc1cccc(-c2nc(-c3ccc4c(c3)nnn4C3CCCC3)no2)c1 ; its hS1P1 cAMP pEC50 = <6.5

* * *

target_under_test: human sphingosine-1-phosphate receptor 1 (S1P1) (Homo sapiens (Human), UniProt P21453)
assay_notes: Inhibition of cAMP production (HTRF cAMP HiRange), S1P1 CHO-K1 cells
Assay type: cell-based
assay_context: efficacy (SPAN) normalized to fingolimod
What hS1P1 cAMP SPAN was measured for each of the following?

# molecule CCOP(=O)(Cc1ccc(-c2noc(-c3ccc4c(c3)nnn4C(C)C)n2)cc1)OCC ; its hS1P1 cAMP SPAN = <75

# molecule CCC1(CC)CC(=O)c2cc(-c3nc(-c4ccc(C(=O)N(C)C)cc4)no3)ccc2O1 ; its hS1P1 cAMP SPAN = >75

# molecule CCC1(CC)CC(=O)c2cc(-c3nc(-c4ccc5[nH]ncc5c4)no3)ccc2O1 ; its hS1P1 cAMP SPAN = >75

# molecule FC(F)(F)Oc1cccc(-c2nc(-c3ccc4c(c3)nnn4C3CCCC3)no2)c1 ; its hS1P1 cAMP SPAN = <75

* * *

target_under_test: human sphingosine-1-phosphate receptor 1 (S1P1) (Homo sapiens (Human), UniProt P21453)
assay_notes: β-Arrestin2 recruitment assay (PathHunter), S1P1 CHO-K1 cells
Format: cell-based
assay_context: CHO-K1; efficacy (SPAN) normalized to fingolimod; read-out: hS1P1 B-arrestin2 SPAN
Sequence (P21453 whole entry, looked up): as above
Sequence (P32121 whole entry partner, looked up): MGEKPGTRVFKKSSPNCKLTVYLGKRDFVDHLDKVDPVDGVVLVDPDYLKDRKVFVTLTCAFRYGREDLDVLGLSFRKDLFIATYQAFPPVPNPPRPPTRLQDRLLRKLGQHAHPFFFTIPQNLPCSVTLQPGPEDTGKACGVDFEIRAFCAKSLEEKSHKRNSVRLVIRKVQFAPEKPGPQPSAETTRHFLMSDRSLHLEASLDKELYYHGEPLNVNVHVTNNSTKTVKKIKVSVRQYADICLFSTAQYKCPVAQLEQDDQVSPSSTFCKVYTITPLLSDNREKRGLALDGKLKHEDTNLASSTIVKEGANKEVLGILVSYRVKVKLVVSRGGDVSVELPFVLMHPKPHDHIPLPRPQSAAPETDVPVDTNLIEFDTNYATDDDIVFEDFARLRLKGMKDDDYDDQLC
property_measured: Emax

# compound COc1ccccc1-c1nc(-c2ccc3c(c2)nnn3C2CCCC2)no1 [Compound 120] ; its Emax = > 75%

# compound CC(C)n1nnc2cc(-c3nc(-c4ccc5ccccc5n4)no3)ccc21 [Compound 168] ; its Emax = < 75%

# compound CC(C)(CO)n1nnc2cc(-c3noc(-c4cccnc4F)n3)ccc21 [Compound 643] ; its Emax = < 75%

# compound COc1ccc(-c2coc(-c3ccc4c(c3)nnn4C(C)C)n2)cc1 [Compound 250] ; its Emax = < 75%

# compound Cc1ccccc1-c1c[nH]c(-c2ccc3c(c2)nnn3C(C)C)c1 [Compound 516] ; its Emax = < 75%

* * *

target_under_test: human sphingosine-1-phosphate receptor 1 (S1P1) (Homo sapiens (Human), UniProt P21453)
assay_notes: β-Arrestin2 recruitment assay (PathHunter), S1P1 CHO-K1 cells
Assay type: cell-based
assay_context: β-arrestin2 recruitment, S1P1 CHO-K1 cells
property_measured: hS1P1 B-arrestin2 pEC50

# compound COc1ccccc1-c1nc(-c2ccc3c(c2)nnn3C(C)C)no1 ; its hS1P1 B-arrestin2 pEC50 = >5

# compound CCC1(CC)CC(=O)c2cc(-c3nnc(-c4cccnc4)o3)ccc2O1 ; its hS1P1 B-arrestin2 pEC50 = <5

# compound CCCn1nnc2cc(-c3nc(-c4ccc(C(F)(F)F)c(F)c4)no3)ccc21 ; its hS1P1 B-arrestin2 pEC50 = <5

# compound COc1cccc(-c2noc(-c3ccc4c(c3)nnn4C(C)C)n2)c1 ; its hS1P1 B-arrestin2 pEC50 = <5

# compound COc1ccccc1-c1nc(-c2ccc3c(c2)nnn3C2CCCC2)no1 ; its hS1P1 B-arrestin2 pEC50 = >5

* * *

What hS1P1 cAMP pEC50 was measured for each of the following?
target_under_test: human sphingosine-1-phosphate receptor 1 (S1P1) (Homo sapiens (Human))
assay_notes: Inhibition of cAMP production (HTRF cAMP HiRange), S1P1 CHO-K1 cells
Assay type: cell-based
assay_context: inhibition of cAMP production, S1P1 CHO-K1 cells

Known value: human sphingosine-1-phosphate receptor 1 (S1P1) (Homo sapiens (Human)) hS1P1 cAMP pEC50 of the compound COc1ccc(-c2nc(-c3ccc4c(c3)nnn4C(C)C)no2)cc1 equals <6.5

Known value: human sphingosine-1-phosphate receptor 1 (S1P1) (Homo sapiens (Human)) hS1P1 cAMP pEC50 of the compound CCC1(CC)CC(=O)c2cc(-c3nc(-c4ccc5[nH]c(=O)oc5c4)no3)ccc2O1 equals >6.5

Known value: human sphingosine-1-phosphate receptor 1 (S1P1) (Homo sapiens (Human)) hS1P1 cAMP pEC50 of the compound CCC1(CC)CC(=O)c2cc(-c3nc(-c4ccncn4)no3)ccc2O1 equals <6.5

Known value: human sphingosine-1-phosphate receptor 1 (S1P1) (Homo sapiens (Human)) hS1P1 cAMP pEC50 of the compound COc1cc(NC(C)=O)ccc1-c1noc(-c2ccc3c(c2)nnn3C(C)C)n1 equals >6.5

Known value: human sphingosine-1-phosphate receptor 1 (S1P1) (Homo sapiens (Human)) hS1P1 cAMP pEC50 of the compound COc1cccc2nc(-c3ccc4c(c3)nnn4C(C)C)oc12 equals >6.5

Known value: human sphingosine-1-phosphate receptor 1 (S1P1) (Homo sapiens (Human)) hS1P1 cAMP pEC50 of the compound C=CCNc1ccc(-c2nc(-c3ccc4c(c3)nnn4C(C)C)no2)cc1C#N equals >6.5

Known value: human sphingosine-1-phosphate receptor 1 (S1P1) (Homo sapiens (Human)) hS1P1 cAMP pEC50 of the compound CC(C)n1nnc2cc(-c3noc(-c4cccc(F)c4)n3)ccc21 equals >6.5

Known value: human sphingosine-1-phosphate receptor 1 (S1P1) (Homo sapiens (Human)) hS1P1 cAMP pEC50 of the compound CC(C)n1nnc2cc(-c3nc4c(Cl)cccc4o3)ccc21 equals <6.5

Known value: human sphingosine-1-phosphate receptor 1 (S1P1) (Homo sapiens (Human)) hS1P1 cAMP pEC50 of the compound Cc1cnccc1-c1noc(-c2ccc3c(c2)nnn3CC(C)(C)O)n1 equals >6.5

Known value: human sphingosine-1-phosphate receptor 1 (S1P1) (Homo sapiens (Human)) hS1P1 cAMP pEC50 of the compound CC(C)n1ccc2cc(-c3noc(-c4ccc(F)cc4)n3)ccc21 equals <6.5

Known value: human sphingosine-1-phosphate receptor 1 (S1P1) (Homo sapiens (Human)) hS1P1 cAMP pEC50 of the compound c1ccc(Oc2ccc(-c3noc(-c4ccc5c(c4)nnn5C4CC4)n3)cc2)cc1 equals <6.5

Known value: human sphingosine-1-phosphate receptor 1 (S1P1) (Homo sapiens (Human)) hS1P1 cAMP pEC50 of the compound CC(C)n1nnc2cc(-c3nc4c(ccc5sccc54)o3)ccc21 equals >6.5

Known value: human sphingosine-1-phosphate receptor 1 (S1P1) (Homo sapiens (Human)) hS1P1 cAMP pEC50 of the compound CC(C)n1ccc2cc(-c3nsc(-c4ccccc4F)n3)ccc21 equals <6.5

Known value: human sphingosine-1-phosphate receptor 1 (S1P1) (Homo sapiens (Human)) hS1P1 cAMP pEC50 of the compound CC(C)n1nnc2cc(-c3nc(-c4ccc(Cl)s4)no3)ccc21 equals <6.5

Known value: human sphingosine-1-phosphate receptor 1 (S1P1) (Homo sapiens (Human)) hS1P1 cAMP pEC50 of the compound Cc1cc(-c2nc(-c3ccc4c(c3)nnn4C(C)C)no2)cnc1C equals <6.5

Known value: human sphingosine-1-phosphate receptor 1 (S1P1) (Homo sapiens (Human)) hS1P1 cAMP pEC50 of the compound CCC1(CC)CC(=O)c2cc(-c3nc(-c4cccnc4OC)no3)ccc2O1 equals >6.5

Known value: human sphingosine-1-phosphate receptor 1 (S1P1) (Homo sapiens (Human)) hS1P1 cAMP pEC50 of the compound CCC1(CC)CC(=O)c2cc(-c3nc(-c4ccc(NS(C)(=O)=O)cc4OC)no3)ccc2O1 equals >6.5

Known value: human sphingosine-1-phosphate receptor 1 (S1P1) (Homo sapiens (Human)) hS1P1 cAMP pEC50 of the compound Cc1cccc2oc(-c3ccc4c(c3)nnn4C(C)C)nc12 equals >6.5

* * *

What Emax was measured for each of the following?
target_under_test: human sphingosine-1-phosphate receptor 1 (S1P1) (Homo sapiens (Human))
assay_notes: β-Arrestin2 recruitment assay (PathHunter), S1P1 CHO-K1 cells
Type: cell-based
assay_context: CHO-K1; efficacy (SPAN) normalized to fingolimod; read-out: hS1P1 B-arrestin2 SPAN

# compound Cc1cccc(C)c1-c1noc(-c2ccc3c(c2)nnn3C(C)C)n1 [Compound 243] ; its Emax = > 75%

# compound CC1(C)CC(=O)c2cc(-c3nc(-c4cccnc4)no3)ccc2O1 [Compound 274] ; its Emax = < 75%

# compound C=CCNc1ccc(-c2nc(-c3ccc(NS(C)(=O)=O)cc3)no2)cc1C#N [Compound 149] ; its Emax = > 75%

# compound CC(C)n1nnc2cc(-c3noc(-c4cnccn4)n3)ccc21 [Compound 78] ; its Emax = < 75%

# compound CC(C)n1nnc2cc(-c3ncc(-c4cccc(F)c4)s3)ccc21 [Compound 110] ; its Emax = < 75%

// data source = patent US11912693B2
